# Tested on: XBP1s
# assay.info: Determination of XBP1s level induced by various compounds (RT-qPCR splicing assay), several cell lines
# Format: cell-based, human
# test.settings: in a time, cell or concentration dependent manner

- compound: "C=CCNC1=C2C[C@@H](C)C[C@H](OC)[C@H](O)[C@@H](C)/C=C(\\C)[C@H](OC(N)=O)[C@@H](OC)/C=C\\C=C(/C)C(=O)NC(=CC1=O)C2=O [17-AAG]"
  induction of XBP1s: "able to induce XBP1s"
- compound: "Clc1ccc(Nc2nnc(Cc3ccncc3)c3ccccc23)cc1 [Vatalinib]"
  induction of XBP1s: "able to induce XBP1s"
- compound: "Nc1ccn([C@@H]2O[C@H](CO)[C@@H](O)C2(F)F)c(=O)n1 [Gemcitabine]"
  induction of XBP1s: "able to induce XBP1s"
- compound: "O=C(CCCCCCC(=O)Nc1ccccc1)NO [Vorinostat]"
  induction of XBP1s: "able to induce XBP1s"
- compound: "Cc1cn(-c2cc(NC(=O)c3ccc(C)c(Nc4nccc(-c5cccnc5)n4)c3)cc(C(F)(F)F)c2)cn1 [Nilotinib]"
  induction of XBP1s: "able to induce XBP1s"
- compound: "CO[C@H]1C[C@@H]2CC[C@@H](C)[C@@](O)(O2)C(=O)C(=O)N2CCCC[C@H]2C(=O)O[C@H]([C@H](C)C[C@@H]2CC[C@@H](OC(=O)C(C)(CO)CO)[C@H](OC)C2)CC(=O)[C@H](C)/C=C(\\C)[C@@H](O)[C@@H](OC)C(=O)[C@H](C)C[C@H](C)/C=C/C=C/C=C/1C [Torisel®, Temsirolimus]"
  induction of XBP1s: "able to induce XBP1s"
- compound: "CC(=O)O[C@H]1C(=O)[C@@]2(C)[C@H]([C@H](OC(=O)c3ccccc3)[C@]3(O)C[C@H](OC(=O)[C@H](O)[C@@H](NC(=O)c4ccccc4)c4ccccc4)C(C)=C1C3(C)C)[C@]1(OC(C)=O)CO[C@@H]1C[C@@H]2O [Paclitaxel]"
  induction of XBP1s: "able to induce XBP1s"
- compound: "CNC(=O)c1cc(Oc2ccc(NC(=O)Nc3ccc(Cl)c(C(F)(F)F)c3)cc2)ccn1 [Sorafenib]"
  induction of XBP1s: "able to induce XBP1s"
- compound: "COc1cc2ncnc(Nc3ccc(F)c(Cl)c3)c2cc1OCCCN1CCOCC1 [Gefitinib]"
  induction of XBP1s: "able to induce XBP1s"

====

# assay.info: Oral bioavailability test, mouse
# test.settings: in vivo, 10 mg/kg dose

- structure.notation: "COc1cc2c(C)c(CC(=O)N3CCOCC3)c(=O)oc2c(C=O)c1O"
  bioavailability: "63%"

====

# assay.info: Oral bioavailability test, dog
# test.settings: in vivo, 4 mg/kg dose
measured.quantity: bioavailability

- compound: "COc1cc2c(C)c(CC(=O)N3CCOCC3)c(=O)oc2c(C=O)c1O [Orin 1001]"
  result: "68.5%"
